Below, each entry is listed alongside its reported Kd.
system: T1, EsCas13d, nuclease-dead (Eubacterium siraeum, UniProt B0MS50, R295A;H300A;R849A;H854A)
T1 sequence: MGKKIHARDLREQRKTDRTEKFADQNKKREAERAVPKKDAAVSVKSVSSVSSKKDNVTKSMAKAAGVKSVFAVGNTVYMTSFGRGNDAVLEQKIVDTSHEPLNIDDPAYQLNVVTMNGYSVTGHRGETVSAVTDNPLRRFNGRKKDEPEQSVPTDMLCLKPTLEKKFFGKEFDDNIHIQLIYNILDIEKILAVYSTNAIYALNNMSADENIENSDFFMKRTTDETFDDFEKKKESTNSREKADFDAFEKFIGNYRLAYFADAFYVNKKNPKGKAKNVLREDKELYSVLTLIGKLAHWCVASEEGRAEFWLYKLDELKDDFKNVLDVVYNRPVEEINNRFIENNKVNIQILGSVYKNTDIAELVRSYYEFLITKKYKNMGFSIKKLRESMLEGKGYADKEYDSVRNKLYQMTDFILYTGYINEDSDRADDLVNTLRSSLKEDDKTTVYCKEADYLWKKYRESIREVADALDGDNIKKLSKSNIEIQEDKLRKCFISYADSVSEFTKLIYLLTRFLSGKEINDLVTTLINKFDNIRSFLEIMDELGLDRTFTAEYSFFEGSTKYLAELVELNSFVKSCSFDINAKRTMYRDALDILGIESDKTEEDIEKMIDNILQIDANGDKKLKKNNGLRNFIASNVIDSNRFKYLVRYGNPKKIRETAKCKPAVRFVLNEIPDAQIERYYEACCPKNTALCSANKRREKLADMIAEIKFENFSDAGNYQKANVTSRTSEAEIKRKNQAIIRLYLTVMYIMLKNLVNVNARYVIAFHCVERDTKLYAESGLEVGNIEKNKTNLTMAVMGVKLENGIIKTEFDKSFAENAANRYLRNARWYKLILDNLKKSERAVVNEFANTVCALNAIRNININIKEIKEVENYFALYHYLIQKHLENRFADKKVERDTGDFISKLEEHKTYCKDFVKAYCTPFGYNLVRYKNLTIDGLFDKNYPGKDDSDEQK
assay overview: crRNA (strand 1, pre-loaded); Mg2+; 40 mM Tris-HCl pH 7.5, 150 mM NaCl, 6 mM MgCl2, 1 mM DTT, 0.1% Tween-20, 0.2 mg/ml BSA; 25 C; 10 min per concentration, then washed
measurement conditions: tags: His6-TwinStrep-SUMO cleaved; N-terminal SNAP kept (SNAP-Surface 488); label: 3' end held by stalled T7 RNA polymerase

[
  {
    "binder": "target 1 insA 3' of 13,insU 3' of 6 (mixed) RNA 1: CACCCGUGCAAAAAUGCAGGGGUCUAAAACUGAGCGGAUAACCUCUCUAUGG RNA 2: GGGAAUGGAUCCACAUCUACGAAUUCGUACCAUAGAGAGAGUUAUCCUGCUCACCGAGAUCGGAAGAGCACACGU",
    "readout units": "nM",
    "Kd": 4.15
  },
  {
    "binder": "target 1 insU 3' of 12,insG 3' of 4 (mixed) RNA 1: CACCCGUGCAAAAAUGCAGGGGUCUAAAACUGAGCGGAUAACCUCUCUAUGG RNA 2: GGGAAUGGAUCCACAUCUACGAAUUCGUACCAUAGAGAGGUUUAUCCGCGUCACCGAGAUCGGAAGAGCACACGU",
    "readout units": "nM",
    "Kd": 4.6
  },
  {
    "binder": "target 1 C2G,C4U (mixed) RNA 1: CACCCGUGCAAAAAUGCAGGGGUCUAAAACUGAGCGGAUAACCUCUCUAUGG RNA 2: GGGAAUGGAUCCACAUCUACGAAUUCGUACCAUAGAGAGGUUAUCCGUUGACCGAGAUCGGAAGAGCACACGU",
    "readout units": "nM",
    "Kd": 54
  }
]
